Data provenance is patent US9987381B2.

EXPERIMENTAL_DETAILS: Plasma concentration and plasma free fraction in saturation study
Type: in vivo, rhesus monkeys
STUDY_CONDITIONS: both sexes, rhesus monkey, plasma, intravenous; measured during the saturation studies
MEASURED_ENDPOINT: fraction unbound
API note: the answer field is a bare number with no unit suffix.

// lookup fraction unbound for Cc1noc(-c2ccc(-c3ccc(C4(C(=O)O)CC4)cc3)cc2)c1NC(=O)O[C@H](C)c1cccc([11CH3])c1 [[^11C]-BMT-136088]
0.002

====

TARGET_OF_ASSAY: LPA1 (Macaca mulatta, UniProt H9EN64)
Sequence (H9EN64 1-364): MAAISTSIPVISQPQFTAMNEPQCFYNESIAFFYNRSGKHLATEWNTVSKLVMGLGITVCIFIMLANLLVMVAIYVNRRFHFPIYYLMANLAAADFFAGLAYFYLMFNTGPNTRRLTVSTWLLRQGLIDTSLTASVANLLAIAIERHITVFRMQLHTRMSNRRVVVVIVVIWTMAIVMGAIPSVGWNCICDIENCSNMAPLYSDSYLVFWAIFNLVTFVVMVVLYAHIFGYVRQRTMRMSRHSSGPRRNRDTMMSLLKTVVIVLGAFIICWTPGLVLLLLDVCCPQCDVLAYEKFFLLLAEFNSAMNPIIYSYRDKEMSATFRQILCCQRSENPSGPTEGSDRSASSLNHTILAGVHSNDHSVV
EXPERIMENTAL_DETAILS: PET saturation study of [11C]-BMT-136088 in lung (bolus plus infusion, VT by MA1/EA)
STUDY_CONDITIONS: MA1 and all corrections; VT versus plasma concentration
MEASURED_ENDPOINT: pIC50
Note on pIC50: it is the negative log10 of concentration, concentration in mol/L.

Provide the documented pIC50 with LPA1 (Macaca mulatta, UniProt H9EN64) as the system for Cc1noc(-c2ccc(-c3ccc(C4(C(=O)O)CC4)cc3)cc2)c1NC(=O)O[C@H](C)c1cccc([11CH3])c1 [[^11C]-BMT-136088]
7.55
